assay: Primary qHTS for delayed death inhibitors of the malarial parasite plastid, 96 hour incubation; conditions: P. falciparum luciferase reporter growth; series mostly up to 28.7 µM
In all, about 320,000 compounds went through this assay and about 22,000 (6.9%) were called active. Roughly 27% stayed inconclusive and do not appear here. The call rests on the fitted dose curve; in most records, active means well fitted inhibition curve with a large enough effect; inconclusive means small, poorly fitted or top-dose-only effect, or another doubt; inactive means no such curve, though single readings can be large or run the other way. Shown is part of a subset that was picked to be rich in actives.
Labels: yes = active, no = inactive

compound: CCOC(=O)CC1COCCN1C(=O)c1cc(COc2ccc(F)c(F)c2)on1 (stereo not given)
group.label: no
--
compound: C=CCN1C(=O)C(O)(CC(=O)c2ccc(Cl)cc2)c2ccccc21 (stereo not given)
group.label: yes
--
compound: CCOc1ccc(CN(CCCl)CCCl)cc1C(=O)OC
group.label: no
--
compound: COC(=O)c1cc(CNC(=O)CC(C)c2ccccc2)ccc1OC (stereo not given)
group.label: no
--
compound: O=C(CC1(O)C(=O)N(CN2CCOCC2)c2ccccc21)c1ccccc1 (stereo not given)
group.label: no
--
compound: O=C(NCc1ccncc1)c1ccc(NS(=O)(=O)c2cccc([N+](=O)[O-])c2)cc1
group.label: no
--
compound: CC(=O)c1c(C)[nH]c(C(=O)CN2C(=O)NC(C)(C)C2=O)c1C
group.label: no
--
compound: Cc1nn(-c2ccccc2)c(C)c1C(=O)OCC(=O)NC(=O)NC1CCCCC1
group.label: no
--
compound: Cc1ccnc(NS(=O)(=O)c2ccc(NC(=O)c3oc4ccc(F)cc4c3C)cc2)n1
group.label: no
--
compound: C=CCN1C(=O)C(O)(CC(=O)c2ccccn2)c2ccccc21 (stereo not given)
group.label: no
